Experiment: Phase 1 open-label study: plasma PK of single inhaled nezulcitinib doses under supplemental oxygenation scenarios
Format: in vivo, human
Settings: human, plasma, inhaled, 3 mg, Administration B: single 3 mg, oral inhalation, low-flow nasal cannula oxygen 6 L/min; plasma; arithmetic mean; read-out: AUC0-t
result-type: AUC(0-t) (ng·h/mL)
Give the value, in units of ng·h/mL, as a plain number.

Memo: `CCc1cc(O)ccc1-c1ccc2c(-c3nc4c([nH]3)CN(C(C)C)[C@H](C(=O)N3CC(N(C)C)C3)C4)n[nH]c2c1` , reported AUC(0-t): 52.4

----------
Assay: Phase 1 open-label study: plasma PK of single inhaled nezulcitinib doses under supplemental oxygenation scenarios
Assay type: in vivo, human
Details: human, plasma, inhaled, 3 mg, Administration C: single 3 mg, oral inhalation, high-flow nasal cannula oxygen 30 L/min; plasma; arithmetic mean; read-out: AUC0-t
result-type: AUC(0-t) (ng·h/mL)
Return type: number; implicit unit ng·h/mL.

Record CCc1cc(O)ccc1-c1ccc2c(-c3nc4c([nH]3)CN(C(C)C)[C@H](C(=O)N3CC(N(C)C)C3)C4)n[nH]c2c1 [Compound 1] , field AUC(0-t): 53.1

----------
Experiment: Phase 1 open-label study: plasma PK of single inhaled nezulcitinib doses under supplemental oxygenation scenarios
Format: in vivo, human
Details: human, plasma, inhaled or intranasal, 3 mg, Administration A: single 3 mg, nasal inhalation via high-flow nasal cannula circuit, oxygen 30 L/min; plasma; arithmetic mean
Protocol: Part A: assessed the plasma PK of nezulcitinib following single inhaled doses administered in the setting of various supplemental oxygenation scenarios in healthy participants. This was a Phase 1, open-label, fixed-sequence, 4-period study to evaluate the PK and safety of single inhaled doses of nezulcitinib, administered under different supplemental oxygenation scenarios. […] The following non-compartmental PK parameters were calculated for nezulcitinib, as appropriate: […]
result-type: AUC(0-inf) (ng·h/mL)
Please respond with the number in ng·h/mL and leave the unit unwritten.

Field AUC(0-inf) (entry `CCc1cc(O)ccc1-c1ccc2c(-c3nc4c([nH]3)CN(C(C)C)[C@H](C(=O)N3CC(N(C)C)C3)C4)n[nH]c2c1` ) reads 7.76

----------
Assay: Phase 1 open-label study: plasma PK of single inhaled nezulcitinib doses under supplemental oxygenation scenarios
Format: in vivo, human
Settings: human, plasma, inhaled, 3 mg, Administration C: single 3 mg, oral inhalation, high-flow nasal cannula oxygen 30 L/min; plasma; arithmetic mean
result-type: Cmax
Kindly report the value followed by its unit.

The recorded Cmax for `CCc1cc(O)ccc1-c1ccc2c(-c3nc4c([nH]3)CN(C(C)C)[C@H](C(=O)N3CC(N(C)C)C3)C4)n[nH]c2c1` is 14.2 ng/mL

----------
Test: Phase 1 open-label study: plasma PK of single inhaled nezulcitinib doses under supplemental oxygenation scenarios
Assay type: in vivo, human
Settings: human, plasma, inhaled, 3 mg, Administration B: single 3 mg, oral inhalation, low-flow nasal cannula oxygen 6 L/min; plasma; arithmetic mean
Procedure: Part A: assessed the plasma PK of nezulcitinib following single inhaled doses administered in the setting of various supplemental oxygenation scenarios in healthy participants. This was a Phase 1, open-label, fixed-sequence, 4-period study to evaluate the PK and safety of single inhaled doses of nezulcitinib, administered under different supplemental oxygenation scenarios. […] The following non-compartmental PK parameters were calculated for nezulcitinib, as appropriate: […]
result-type: Cmax

The recorded Cmax for entry CCc1cc(O)ccc1-c1ccc2c(-c3nc4c([nH]3)CN(C(C)C)[C@H](C(=O)N3CC(N(C)C)C3)C4)n[nH]c2c1 [Compound 1] equals 14 ng/mL
